B1: NP_002788.1 (parent)
chain: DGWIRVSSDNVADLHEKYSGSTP

variants of: B1; test: protein stability index of a GFP-peptide fusion (GPS, HEK-293T) (PSI 1-6); higher = more stable; conditions: c terminus: native;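 note: lentivirally expressed fusion library, cells FACS-sorted into six equal-sized GFP/DsRed ratio bins, PSI computed from sequencing read fractions per bin weighted by bin number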
Quick rule for you: protein stability index at 3 or higher means y, lower means n.

- K17E: y
- G2Y: n
- S8E: n
- I4F: y
- N10R: n
- I4D: y
- S21R: n
- D9A: n
- I4T: n
